- target_desc: factor Xa (FXa) (Homo sapiens, UniProt P00742)
- Construct: purchased R&D Systems, Minneapolis, MN
- Sequence (P00742 235-488 limits assumed): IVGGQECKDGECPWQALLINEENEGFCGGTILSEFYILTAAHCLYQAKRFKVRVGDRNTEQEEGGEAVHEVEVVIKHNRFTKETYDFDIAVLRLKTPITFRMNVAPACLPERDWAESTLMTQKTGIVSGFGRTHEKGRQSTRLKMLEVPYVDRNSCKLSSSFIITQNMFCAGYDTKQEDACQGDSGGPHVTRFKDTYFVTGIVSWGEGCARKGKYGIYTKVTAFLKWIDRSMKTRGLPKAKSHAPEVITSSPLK
- Sequence (P00742 41-179 partner limits assumed): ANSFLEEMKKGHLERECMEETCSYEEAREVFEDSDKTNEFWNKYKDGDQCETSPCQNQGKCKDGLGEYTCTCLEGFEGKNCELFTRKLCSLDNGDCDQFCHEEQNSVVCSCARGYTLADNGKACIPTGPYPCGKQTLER
- run_description: FXa dose-response activity-based DEL screening in droplets, hit replicate count by sequencing
- Assay type: biochemical
- run_parameters: FXa screen at 30% UV intensity

- molecule: "NC(=O)c1cccc(CNC(=O)c2ccc(Cl)s2)c1 [Hit 5a]"
  k-class (30% UV): 10
- molecule: "NC(=O)[C@@H](Cc1c[nH]c2ccccc12)NC(=O)c1ccc(N2CCCC2=O)cc1 [Hit 2a]"
  k-class (30% UV): 9
- molecule: "NC(=O)[C@@H]1CCCN1C1CCN(C(=O)c2cn3cc(Cl)ccc3n2)CC1 [Hit 3a]"
  k-class (30% UV): 8
- molecule: "NC(=O)[C@@H](Cc1csc2ccccc12)NC(=O)c1ccc(N2CCOCC2)cc1 [Hit 1b]"
  k-class (30% UV): 9
- molecule: "NC(=O)[C@@H](Cc1csc2ccccc12)NC(=O)c1ccc(N2CCCC2=O)cc1 [Hit 1a]"
  k-class (30% UV): 14

---

- target_desc: autotaxin (ATX) (Homo sapiens)
Recorded IC50 values for a group of molecules are listed next.

- molecule: "Cc1cccn2cc(C(=O)NC3c4ccccc4CCc4cc(OCC(N)=O)ccc43)nc12 (stereo not shown) [Hit 13a]"
  inequality_symbol: "="
  IC50 / µM: 6
- molecule: "NC(=O)c1cccc(CNC(=O)c2csc(Cc3ccccc3)n2)c1 [Hit 12a]"
  inequality_symbol: "="
  IC50 / µM: 28
- molecule: "NC(=O)c1cccc(CNC(=O)[C@@H]2C[C@H]2c2ccccc2)c1 [Hit 12b]"
  inequality_symbol: ">"
  IC50 / µM: 300
- molecule: "NC(=O)COc1ccc2c(c1)CCc1ccccc1C2NC(=O)c1ccc(Cl)o1 (stereo not shown) [Hit 13b]"
  inequality_symbol: "="
  IC50 / µM: 6
- molecule: "NC(=O)c1ccc2c(c1)CCN(C(=O)c1cnn(CC3CCCCC3)c1)C2 [Hit 17a]"
  inequality_symbol: "="
  IC50 / µM: 1
- molecule: "NC(=O)Cn1c(=O)n(C2CCN(C(=O)c3cnn(CC4CCCCC4)c3)CC2)c2ccccc21 [Hit 16b]"
  inequality_symbol: "="
  IC50 / µM: 13
- molecule: "NC(=O)Cn1c(=O)n(C2CCN(C(=O)c3ccc(Cl)cc3C(F)(F)F)CC2)c2ccccc21 [Hit 16a]"
  inequality_symbol: "="
  IC50 / µM: 7

---

- target_desc: factor Xa (FXa) (Homo sapiens)
- Construct: purchased R&D Systems, Minneapolis, MN
- run_description: FXa dose-response activity-based DEL screening in droplets, hit replicate count by sequencing
- Assay type: biochemical
- run_parameters: FXa screen at 100% UV intensity
outcome_measure: k-class (100% UV)

- cpd_smiles: "NC(=O)[C@@H](Cc1csc2ccccc12)NC(=O)c1ccc(N2CCOCC2)cc1"
  outcome_measure: "k-class (100% UV)"
  measured_result: 4
- cpd_smiles: "NC(=O)[C@@H](Cc1csc2ccccc12)NC(=O)c1ccc(N2CCCC2=O)cc1"
  outcome_measure: "k-class (100% UV)"
  measured_result: 4
- cpd_smiles: "NC(=O)[C@@H]1CCCN1C1CCN(C(=O)c2cn3cc(Cl)ccc3n2)CC1"
  outcome_measure: "k-class (100% UV)"
  measured_result: 9
- cpd_smiles: "NC(=O)c1cccc(CNC(=O)c2ccc(Cl)s2)c1"
  outcome_measure: "k-class (100% UV)"
  measured_result: 8
- cpd_smiles: "NC(=O)[C@@H](Cc1c[nH]c2ccccc12)NC(=O)c1ccc(N2CCCC2=O)cc1"
  outcome_measure: "k-class (100% UV)"
  measured_result: 6

---

- target_desc: autotaxin (ATX) (Homo sapiens)
- Construct: purchased Echelon Biosciences, Salt Lake City, UT
- run_description: ATX dose-response activity-based DEL screening in droplets, hit replicate count by sequencing
- Assay type: biochemical
- run_parameters: ATX screen at 100% UV intensity
outcome_measure: k-class (100% UV)

- molecule: "NC(=O)c1cccc(CNC(=O)c2csc(Cc3ccccc3)n2)c1 [Hit 12a]"
  target_desc: "autotaxin (ATX) (Homo sapiens)"
  measured_result: 8
- molecule: "NC(=O)c1ccc2c(c1)CCN(C(=O)c1cnn(CC3CCCCC3)c1)C2 [Hit 17a]"
  target_desc: "autotaxin (ATX) (Homo sapiens)"
  measured_result: 6
- molecule: "Cc1cccn2cc(C(=O)NC3c4ccccc4CCc4cc(OCC(N)=O)ccc43)nc12 (stereo not shown) [Hit 13a]"
  target_desc: "autotaxin (ATX) (Homo sapiens)"
  measured_result: 3
- molecule: "NC(=O)COc1ccc2c(c1)CCc1ccccc1C2NC(=O)c1ccc(Cl)o1 (stereo not shown) [Hit 13b]"
  target_desc: "autotaxin (ATX) (Homo sapiens)"
  measured_result: 3
- molecule: "NC(=O)Cn1c(=O)n(C2CCN(C(=O)c3ccc(Cl)cc3C(F)(F)F)CC2)c2ccccc21 [Hit 16a]"
  target_desc: "autotaxin (ATX) (Homo sapiens)"
  measured_result: 4
- molecule: "NC(=O)Cn1c(=O)n(C2CCN(C(=O)c3cnn(CC4CCCCC4)c3)CC2)c2ccccc21 [Hit 16b]"
  target_desc: "autotaxin (ATX) (Homo sapiens)"
  measured_result: 2
- molecule: "NC(=O)c1cccc(CNC(=O)[C@@H]2C[C@H]2c2ccccc2)c1 [Hit 12b]"
  target_desc: "autotaxin (ATX) (Homo sapiens)"
  measured_result: 3

---

- target_desc: autotaxin (ATX) (Homo sapiens, UniProt Q13822)
- Construct: purchased Echelon Biosciences, Salt Lake City, UT
- run_description: Biochemical assay for ATX hit validation (FS-3 substrate, microplate)
- run_parameters: ATX

- compound: "NC(=O)c1cccc(CNC(=O)c2csc(Cc3ccccc3)n2)c1 [Hit 12a]"
  unit_symbol: "%"
  Maximum inhibition (%): 94
- compound: "NC(=O)c1ccc2c(c1)CCN(C(=O)c1cnn(CC3CCCCC3)c1)C2 [Hit 17a]"
  unit_symbol: "%"
  Maximum inhibition (%): 91
- compound: "NC(=O)COc1ccc2c(c1)CCc1ccccc1C2NC(=O)c1ccc(Cl)o1 (stereo not drawn) [Hit 13b]"
  unit_symbol: "%"
  Maximum inhibition (%): 26
- compound: "NC(=O)Cn1c(=O)n(C2CCN(C(=O)c3ccc(Cl)cc3C(F)(F)F)CC2)c2ccccc21 [Hit 16a]"
  unit_symbol: "%"
  Maximum inhibition (%): 91
- compound: "NC(=O)Cn1c(=O)n(C2CCN(C(=O)c3cnn(CC4CCCCC4)c3)CC2)c2ccccc21 [Hit 16b]"
  unit_symbol: "%"
  Maximum inhibition (%): 96
- compound: "Cc1cccn2cc(C(=O)NC3c4ccccc4CCc4cc(OCC(N)=O)ccc43)nc12 (stereo not drawn) [Hit 13a]"
  unit_symbol: "%"
  Maximum inhibition (%): 57
